B1: VTI1B (parent)
chain: ANETLAEMEEELRYAPLSFRNPMM

- Variants of: B1
- measurement.description: protein stability index of a GFP-peptide fusion (GPS, HEK-293T) (PSI 1-6); higher = more stable;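 further: lentivirally expressed fusions sorted by FACS into six bins by GFP to DsRed ratio, PSI derived from sequencing read proportions per bin multiplied by bin number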
- test.context: c terminus: a fixed tail appended
Entries and their protein stability index values follow.

mutation.name	protein stability index
E10H	3.06
S18W	3.98
Y14G	2.11
T4W	1.99
P16W	1.89
A15F	1.39
E10Q	3.3
L17M	3.13
E3N	2.43
A15T	2.06
L17P	3.78
M8E	3.1
E9D	2.85
M23L	3.56
M23K	3.07
M24Y	3.46
F19P	4.87
M8T	3.11
E9V	1.66
N2W	1.06
E3F	1.96
E9K	1.8
